Tested on: PIK4CB
Construct: gene PI4KB
Conditions: concentration: 1 μM, replicates: in singlicate; n = 1
Measured %Inh of individual entries

O=C(Nc1n[nH]c2cc(-c3cccc(F)c3)ccc12)C1CC1    18%
[2H]C([2H])(c1cccc(C(F)(F)F)c1C)n1ccn2c(=O)nc(N3CCOCC3)cc12    0%
COc1ccc(Nc2ncc(C#N)c(Nc3ccccc3C(N)=O)n2)cc1N1CCN(C)CC1.Cl    15%
Cn1ccc2ncnc(Oc3ccc(NC(=O)Nc4ccncc4)c(Cl)c3)c21    0%
O=c1cc(N2CCOCC2)nc2n(Cc3cccc(F)c3)ccn12    0%
Fc1ccc(-c2ncn(CCCN3CCOCC3)c2-c2ccccn2)cc1    0%
COCCNC(=O)c1ccc(-c2cc(C(=O)NC3CC3)cc(F)c2C)cc1    40%
C[C@@H](Oc1cc(-n2cnc3ccc(NC(=O)NC(C)(C)C)cc32)sc1C(N)=O)c1ccccc1Cl    0%

Give the reported %Inh for `Cc1cccc(-c2nc(-c3ccc(S(C)(=O)=O)cc3)sc2-c2ccncc2)c1` (system: PIK4CB).
0%

Give the reported %Inh for `CSc1ccc(-c2cc3ncnc(SCC(=O)O)c3s2)cc1` (system: PIK4CB).
0%

Give the reported %Inh for `Cc1cccc(Cn2ccn3c(=O)cc(N4CCOCC4)nc23)c1` (system: PIK4CB).
0%

Give the reported %Inh for `NS(=O)(=O)c1cccc(-c2ccc3ncc(N4CCOCC4)nc3c2)c1` (system: PIK4CB).
81%

Give the reported %Inh for `Cn1cc(-c2ccc3c(c2)CCN3C(=O)Cc2ccccc2Cl)c2c(N)ncnc21` (system: PIK4CB).
8%

Give the reported %Inh for `CC(=O)Nc1ccc(COc2ccc(Nc3ccnc4cc(-c5ccccn5)ccc34)cc2)cc1.Cl` (system: PIK4CB).
16%

Give the reported %Inh for `CCc1ccnc(/C=C/c2n[nH]c3cc(Sc4ccccc4C(=O)NC)ccc23)c1` (system: PIK4CB).
0%

Give the reported %Inh for `O=C(NOCC1CC1)c1ccc(F)c(F)c1Nc1ccc(I)cc1Cl` (system: PIK4CB).
100%

Give the reported %Inh for `COc1cc2c(cc1OC[C@@H](O)CO)ncc1c3ccc(C#N)cc3[nH]c21` (system: PIK4CB).
0%

Give the reported %Inh for `N#Cc1c(N2CCOCC2)sc(-c2ccn[nH]2)c1-c1ccc(Cl)cc1` (system: PIK4CB).
16%

Give the reported %Inh for `COc1ccc(COc2cc(-n3cnc4ccccc43)sc2C(N)=O)cc1` (system: PIK4CB).
0%

Give the reported %Inh for `N#Cc1ccc(-c2cc(-c3c[nH]nc3-c3ccccn3)ccn2)cc1` (system: PIK4CB).
0%

Give the reported %Inh for Cc1c(Cn2c(C)nn3c(=O)cc(N4CCOC(C)C4)nc23)cccc1C(F)(F)F (stereo not drawn) (system: PIK4CB).
0%

Give the reported %Inh for COc1cc(Nc2nccc(N3CCC(NC(=O)c4cccc(NC(C)=O)c4)C3)n2)cc(OC)c1OC (stereo not drawn) (system: PIK4CB).
0%

Give the reported %Inh for `Cl.Oc1cccc(Nc2ccnc3cc(-c4ccncc4)ccc23)c1` (system: PIK4CB).
0%

Give the reported %Inh for `CN1c2ccc(CNc3ccc(F)cc3)cc2-c2c(cnn2C)S1(=O)=O` (system: PIK4CB).
0%

Give the reported %Inh for `CN(C1=C(c2ccccc2)C(=O)NC1=O)c1ccccc1` (system: PIK4CB).
13%

Give the reported %Inh for `COc1cc2ncn(-c3cc(OCc4sccc4Cl)c(C(N)=O)s3)c2cc1OC` (system: PIK4CB).
0%

Give the reported %Inh for `CCc1nc(-c2cccc(C)c2)c(-c2ccnc(NCc3ccccc3)c2)s1` (system: PIK4CB).
0%

Give the reported %Inh for `CNc1ncnc2[nH]ncc12` (system: PIK4CB).
17%

Give the reported %Inh for `O=C(Nc1cccc(-c2nn3ncccc3c2-c2ccnc(Nc3cccc(C(F)(F)F)c3)n2)c1)c1c(F)cccc1F` (system: PIK4CB).
0%

Give the reported %Inh for `Nc1nc(-c2ccc3c(N)n[nH]c3c2)cc(N2CCCC2)n1` (system: PIK4CB).
14%

Give the reported %Inh for `Cc1nnc(-c2ccc(C)c(-c3ccc(C(=O)Nc4ccc(NS(C)(=O)=O)cc4)cc3)c2)o1` (system: PIK4CB).
0%

Give the reported %Inh for `NS(=O)(=O)c1cccc(-c2ccc3nccc(-c4cccc(S(N)(=O)=O)c4)c3c2)c1` (system: PIK4CB).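 Also: KINOMEscan kinase panel screen.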
99.1%
